Biological target: T1, CD81 (UniProt P60033)
T1 sequence (looked up): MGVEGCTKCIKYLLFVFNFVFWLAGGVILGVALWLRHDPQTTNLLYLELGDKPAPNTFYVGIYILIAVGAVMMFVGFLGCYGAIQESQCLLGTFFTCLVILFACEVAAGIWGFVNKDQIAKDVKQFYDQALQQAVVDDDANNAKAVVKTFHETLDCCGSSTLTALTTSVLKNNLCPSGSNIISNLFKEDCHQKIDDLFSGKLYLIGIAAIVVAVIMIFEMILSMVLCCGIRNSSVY
Assay: cell ELISA

# binder, ELISA absorbance
rows = [
    ("CD81K13 HC 04-hVH_1_69 / LC 5b-hVK_1_39-GA (antibody, V domains shown) VH: EVQLVESGGGLVQPGRSLRLSCTASGFNFKDSYLHWVRQAPGQGLEWMGRIDTGNGNVKFDPKFQGRVTITADESTSTAYMELSSLRSEDTAVYYCVPYGYGFHSWGQGTLVTVSS VL: DIQMTQSPSSLSASVGDRVTITCRASENIYRTLAWYQQKPGKAPKLLIYGATTLADGVPSRFSGSGSGTDFTLTISSLQPEDFATYYCQHFWGTPWTFGQGTKVEIK", 0.403),
    ("CD81K13 HC 04-hVH_1_69 / LC 5b-hVK_1_39 (antibody, V domains shown) VH: EVQLVESGGGLVQPGRSLRLSCTASGFNFKDSYLHWVRQAPGQGLEWMGRIDTGNGNVKFDPKFQGRVTITADESTSTAYMELSSLRSEDTAVYYCVPYGYGFHSWGQGTLVTVSS VL: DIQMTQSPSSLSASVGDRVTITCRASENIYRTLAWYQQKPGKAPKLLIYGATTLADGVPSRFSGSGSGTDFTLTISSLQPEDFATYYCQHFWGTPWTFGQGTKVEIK", 0.428),
    ("CD81K13 HC 04-hVH_1_69 / LC 06-hVK_1_39 (antibody, V domains shown) VH: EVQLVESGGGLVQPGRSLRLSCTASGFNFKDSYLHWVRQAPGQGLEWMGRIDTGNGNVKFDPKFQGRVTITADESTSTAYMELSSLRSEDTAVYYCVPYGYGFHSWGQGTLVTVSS VL: DIQMTQSPSSLSASVGDRVTITCRASENIYRTLAWYQQKPGKAPKLLIYAATTLASGVPSRFSGSGSGTDFTLTISSLQPEDFGTYYCQHFWGTPWTFGQGTKVEIK", 0.386),
]

Data provenance: patent US20170204182A1
